Taken from PubChem BioAssay (NCATS).

# Test system: CP325
# test.method.notes: qHTS profiling for inhibitors of Plasmodium falciparum proliferation (AID 504749); also: nearly all actives have a fitted effect of over 60% in size
# assay.conditions: P. falciparum in erythrocytes, SYBR Green DNA, 72 h; series mostly up to 28.7 µM
Records with an inconclusive call do not appear. Calls of active or inactive are those of the source. Calls follow the shape of the dose curve; as a rule, active = well fitted inhibition curve with a large enough effect; inconclusive = small, poorly fitted or top-dose-only effect; inactive = flat fitted curve, though single readings scatter.
assay.readout: outcome

[[record]]
molecule = "CCC(COC(=O)c1cc(OC)c(OC)c(OC)c1)(c1ccccc1)N(C)C (stereo not drawn)"
assay_readout = "outcome"
result = "inactive"

[[record]]
molecule = "c1ccc(C2CC2)c(OCC2=NCCN2)c1"
assay_readout = "outcome"
result = "inactive"

[[record]]
molecule = "CN1CCN(C(=O)O[C@H]2c3nccnc3C(=O)N2c2ccc(Cl)cn2)CC1"
assay_readout = "outcome"
result = "inactive"

